FYI, the data here is from patent US8318736B2.

Molecular target: HIV strain MDR (L100I, K103N, Y181C, E138G, V1791, L2214F, V278V/I and A327A/V in HIV reverse transcriptase)
Assay: microbe, parasite or virus in culture
Type: cell-based, HIV-1
Details: MDR strain; MT4 LTR-EGFP cells
Value Kind: MDR pEC50 (-log EC50)

[[record]]
compound = "COCCNC(=O)c1c(COC)nc(Nc2ccc(C#N)cc2)nc1Oc1c(C)cc(C=CC#N)cc1C (mixture of isomers)"
value_kind = "MDR pEC50 (-log EC50)"
test_result = 6.18

[[record]]
compound = "COCc1nc(Nc2ccc(C#N)cc2)nc(Oc2c(C)cc(C=C(C)C#N)cc2C)c1C(=O)NCc1ccncc1 (mixture of isomers)"
value_kind = "MDR pEC50 (-log EC50)"
test_result = 5.81

[[record]]
compound = "COCc1nc(Nc2ccc(C#N)cc2)nc(Nc2c(C)cc(C=CC#N)cc2C)c1C(=O)N1CCC(O)CC1 (mixture of isomers)"
value_kind = "MDR pEC50 (-log EC50)"
test_result = 5.21

[[record]]
compound = "COCc1nc(Nc2ccc(C#N)cc2)nc(Oc2c(C)cc(C=CC#N)cc2C)c1C(=O)NCc1ccncc1 (mixture of isomers)"
value_kind = "MDR pEC50 (-log EC50)"
test_result = 5.91

[[record]]
compound = "COCc1nc(Nc2ccc(C#N)cc2)nc(Nc2c(C)cc(C=CC#N)cc2C)c1C(=O)N1CCCC(C(N)=O)C1 (mixture of isomers)"
value_kind = "MDR pEC50 (-log EC50)"
test_result = 5.64

[[record]]
compound = "COCc1nc(Nc2ccc(C#N)cc2)nc(Nc2c(C)cc(C=CC#N)cc2C)c1C(=O)NCCC#N (mixture of isomers)"
value_kind = "MDR pEC50 (-log EC50)"
test_result = 7.03

[[record]]
compound = "COCc1nc(Nc2ccc(C#N)cc2)nc(Nc2c(C)cc(/C=C/C#N)cc2C)c1C(=O)NCC(OC)OC"
value_kind = "MDR pEC50 (-log EC50)"
test_result = 6.97

